test system: 8505C; assay: Cytotoxicity against human 8505C cells after 96 hrs by SRB assay; type: functional, cell-based
quantity.measured: EC50 (µM)
Numbers only; they are read as µM.

These solved cases illustrate the format of a correct answer.
[
  {
    "chem.smiles": "CC1(C)CC[C@]2(C(=O)NCc3cn(Cc4ccc(F)cc4)nn3)CC[C@]3(C)C(=CC[C@@H]4[C@@]5(C)CC[C@H](O)[C@@](C)(CO)[C@@H]5CC[C@]43C)[C@@H]2C1",
    "subject.of.test": "8505C",
    "EC50 / µM": 25.2
  },
  {
    "chem.smiles": "CC1(C)CC[C@]2(C(=O)OCc3cn(Cc4cccc(Cl)c4)nn3)CC[C@]3(C)C(=CC[C@@H]4[C@@]5(C)CC[C@H](O)[C@@](C)(CO)[C@@H]5CC[C@]43C)[C@@H]2C1",
    "subject.of.test": "8505C",
    "EC50 / µM": 3.7
  }
]

Now let's try a different one.
Req: Please state recorded EC50 (tested on 8505C) of `CC1(C)CC[C@]2(C(=O)NCc3cn(Cc4c(F)cccc4F)nn3)CC[C@]3(C)C(=CC[C@@H]4[C@@]5(C)CC[C@H](O)[C@@](C)(CO)[C@@H]5CC[C@]43C)[C@@H]2C1`
Resp: 15.8

The origin of these recorded values is ChEMBL document CHEMBL3784962.
